tgt: H44R/H48Q yeast alcohol dehydrogenase (Saccharomyces cerevisiae, UniProt P00330, H45R/H49Q)
protocol.notes: biochemical
property.label: Ki (mM)
Give the value in mM but do not write mM after it.

INPUT: I'd like to know its Ki. The compound in question is OCC(F)(F)F [CF3CH2OH, 2,2,2-trifluoroethanol, reference compound]
OUTPUT: 55

====

tgt: H44R/H48Q yeast ADH (Saccharomyces cerevisiae, UniProt P00330, H45R/H49Q)
Sequence (P00330 2-348 H45R/H49Q): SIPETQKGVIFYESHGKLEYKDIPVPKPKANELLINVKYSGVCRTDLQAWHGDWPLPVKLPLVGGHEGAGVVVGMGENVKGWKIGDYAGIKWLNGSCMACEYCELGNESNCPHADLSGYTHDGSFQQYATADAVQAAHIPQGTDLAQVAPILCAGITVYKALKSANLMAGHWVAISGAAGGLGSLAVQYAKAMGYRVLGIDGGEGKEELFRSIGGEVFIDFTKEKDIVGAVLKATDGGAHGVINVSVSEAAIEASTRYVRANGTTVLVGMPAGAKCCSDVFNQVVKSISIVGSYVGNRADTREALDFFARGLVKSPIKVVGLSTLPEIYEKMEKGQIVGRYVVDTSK
condition.details: read-out: Kia; at pH 7
property.label: Ki (µM)
Give the value in µM but do not write µM after it.

INPUT: I'd like to know its Ki. The molecule in question is `N=C([O-])c1ccc[n+]([C@@H]2O[C@H](COP(=O)(O)OP(=O)([O-])OC[C@H]3O[C@@H](n4cnc5c(N)ncnc54)[C@H](O)[C@@H]3O)[C@@H](O)[C@H]2O)c1.[Li+]`
OUTPUT: 160
